Molecular target: BCRP (Homo sapiens)
Experiment: BCRP-mediated methotrexate transport in membrane vesicles of BCRP-expressing Sf9 cells
Settings: read-out: IC50 (concentration inhibiting methotrexate transport by 50%); [3H]methotrexate 200 μmol/L, 37° C., 20 minutes
pIC50: −log10 of the molar value.
MEASURE: pIC50

N#Cc1cc(-c2nc3c([O-])ncnc3s2)ccc1Oc1ccc(F)cc1.[K+] [Compound 1]; 6.34

###

Molecular target: BCRP (Homo sapiens)
Sequence (Q9UNQ0 1-655): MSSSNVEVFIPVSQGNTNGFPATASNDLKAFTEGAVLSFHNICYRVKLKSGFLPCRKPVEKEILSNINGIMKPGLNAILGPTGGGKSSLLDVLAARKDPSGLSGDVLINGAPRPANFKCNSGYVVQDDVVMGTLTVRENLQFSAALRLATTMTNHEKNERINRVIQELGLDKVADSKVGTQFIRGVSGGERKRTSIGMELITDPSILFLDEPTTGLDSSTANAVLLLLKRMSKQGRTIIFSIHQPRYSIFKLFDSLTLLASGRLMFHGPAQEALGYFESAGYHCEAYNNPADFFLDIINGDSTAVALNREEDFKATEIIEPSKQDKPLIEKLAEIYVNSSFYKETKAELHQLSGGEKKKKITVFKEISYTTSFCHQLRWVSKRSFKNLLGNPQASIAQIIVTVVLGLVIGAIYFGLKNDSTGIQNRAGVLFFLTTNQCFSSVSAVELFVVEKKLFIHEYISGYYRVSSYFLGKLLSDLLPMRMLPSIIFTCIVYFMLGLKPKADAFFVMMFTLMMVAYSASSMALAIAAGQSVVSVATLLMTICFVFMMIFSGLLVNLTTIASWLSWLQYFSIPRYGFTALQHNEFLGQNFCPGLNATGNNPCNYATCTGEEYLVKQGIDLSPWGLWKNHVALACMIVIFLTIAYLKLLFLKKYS
pIC50: −log10 of the molar value.
MEASURE: pIC50

N#Cc1cc(-c2nc3c(O)ncnc3s2)ccc1Oc1ccccc1; 6.64
